B1: PI4K2A (parent)
chain: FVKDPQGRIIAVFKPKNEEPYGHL

Variants of: B1
measurement protocol: protein stability index of a GFP-peptide fusion (GPS, HEK-293T) (PSI 1-6); higher = more stable;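 also: lentivirally expressed fusions sorted by FACS into six bins by GFP to DsRed ratio, PSI derived from sequencing read proportions per bin multiplied by bin number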
cond: c terminus: a fixed tail appended
Cut-off 2 on protein stability index, inclusive. At or above means 1 (yes); below means 0 (no).

V2N	1 (yes)
N17Y	0 (no)
V12F	1 (yes)
K16Q	1 (yes)

Ask: Answer whether protein stability index of Q6H is greater than or equal to 2.
Reply: 0 (no)

Ask: Does protein stability index meet or surpass 2 for F13Y ?
Reply: 1 (yes)
